Biological target: recombinant human FLAP protein (Homo sapiens, UniProt P20292)
Construct: made in house; host or cells: Sf9 insect cells (membrane fraction, 100,000 x g pellet)
Sequence (P20292 whole entry): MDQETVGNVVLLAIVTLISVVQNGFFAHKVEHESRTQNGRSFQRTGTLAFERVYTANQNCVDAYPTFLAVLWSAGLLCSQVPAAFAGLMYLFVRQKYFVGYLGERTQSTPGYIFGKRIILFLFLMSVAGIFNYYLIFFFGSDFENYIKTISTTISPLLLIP
Experiment: FLAP binding assay (Scintillation Proximity Assay, displacement of [125I]L-691,831)
Conditions: read-out: Human FLAP SPA Binding (IC50 nM)
readout_kind: IC50 (nM)

Sample records with IC50:
INSERT INTO measurements (compound, recorded_result) VALUES
  ('CC(C)(O)Cn1cc(-c2coc([C@@](C)(c3ccc(-c4cnc(N)nc4)cc3)C3CC3)n2)cn1', 36),
  ('CC(C)(O)Cn1cc(-c2cc(C(C)(c3ccc(-c4cnc(N)nc4)cc3)C3CC3)no2)cn1 (stereo not shown)', 8.4),
  ('CC(C)C(C)(c1ccc(-c2cnc(N)nc2)cc1)c1c[nH]c2cc(C(=O)N3CCC(O)C3)ccc12 (stereo not shown)', 1.6);

A: COC(=O)c1ccc(C2(c3ccc(-c4cnc(N)nc4)cc3)CCC2)[nH]1
B: COCCN(C)C(=O)c1cccc2c(C3(c4ccc(-c5cnc(N)nc5)cc4)CCC3)c[nH]c12
C: CC(C)C(C)(c1ccc(OCc2ccccn2)cc1)c1cn(C)c2cc(C(=O)Nc3cccnn3)ccc12 (stereo not shown)
Req: Put the entries in order of IC50, starting with the largest number. Answer with the labels in sequence, matching the requested order.
Resp: A, B, C

1: CC(C)C(C)(c1ccc(-c2cnc(N)nc2)cc1)c1cn(Cc2ccc(Cl)cc2)c2ncccc12 (stereo not shown)
2: Cc1ccc(-c2cnc(C3(c4ccc(-c5cnc(N)nc5)cc4)CCC3)o2)cn1
Req: Of 1 and 2 , which one carries the higher reported IC50? Selection: enter the item's label.
Resp: 2
(2: 7.1 nM, 1: 3.4 nM)

P: Cn1cc(-c2cnc(C(C)(c3ccc(-c4cnc(N)nc4)cc3)C3CC3)s2)cn1 (stereo not shown)
Q: Nc1ncc(-c2ccc(C3(c4nnc(-c5cccnc5)[nH]4)CCC3)cc2)cn1
R: Nc1ncc(-c2ccc(C3(c4c[nH]c5cc(F)ccc45)CCC3)cc2)cn1
Req: Sort entries by IC50 from minimum to maximum value. Lab note: final answer is the ordered label list.
Resp: R, Q, P
(R: 0.94 nM, Q: 3.7 nM, P: 7.7 nM)

1: Nc1ncc(-c2ccc(C3(c4nc5ccccc5s4)CCC3)cn2)cn1
2: CC(C)C(C)(c1ccc(-c2cnc(N)nc2)cc1)c1cn(CCN2CCN(C)CC2)c2ccccc12 (stereo not shown)
Req: Between 1 and 2 , which one has the lower reported IC50 value? Kindly state the label of the option you pick.
Resp: 2
(2: 3.1 nM, 1: 10 nM)
